# Tgt: Glycogen synthase kinase-3 beta (Homo sapiens)
# Assay text: human GSK3B enzyme activity inhibitors – biochemical, ADP-Glo luminescence, GST-GSK3beta, dry powder, selectivity assay for CDK5 tau phosphorylation inhibitor project, dose response (AID 602272)
# Recorded conditions: recombinant GST-GSK3beta, 60 min, at 30 µM (top of the series)
The source made the active and inactive calls.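 The calls were made as follows: active = every repeat run shows inhibition with half-maximal dose at most twice the top dose tested; inconclusive = repeat runs disagree on the call; inactive = every repeat run inactive.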
Measurement kind: activity change, negative = inhibition

{"columns": ["Structure", "Experimental result"],
 "data": [
  ["CCCn1c(NC(=O)c2cccc(S(=O)(=O)N3CCCCC3)c2)nc2ccccc21", "inactive"],
  ["CCCn1c(NC(=O)c2ccc(Cl)c(S(=O)(=O)N3CCCC3)c2)nc2ccccc21", "inactive"],
  ["COc1ccc(C(=O)N2CCN(c3ccccn3)CC2)cc1", "inactive"]
]}

These data points were gathered from PubChem BioAssay AID602272.
